Values compiled from PubChem BioAssay (EPA / NIEHS).

# Read-out: Monocyte Chemoattractant Protein-1 (MCP1), CCL2 (gene 6347)
# ASSAY_TEXT: BSK_3C_MCP1: BioMAP Diversity Plus: 3C Assay for Monocyte Chemoattractant Protein-1 (MCP1) Biomarker Activity (AID 2283017)
# CONDITIONS: primary human endothelial cells (HUVEC); actives raise or lower the signal
Calls of active or inactive are those of the source. The calls were made as follows: active = hit-call score of the fitted dose curve at least 0.9, where 1 is the maximum; inactive = score below 0.9.
Respond only with the outcome that fits, drawn from active, inactive

SMILES | ASSIGNED_LABEL
O=C(O)CCCCC(=O)O | inactive
O=c1[nH]cc(F)c(=O)[nH]1 | inactive
CCCCCCOCCO | inactive
Cc1ccc(Cl)cc1 | inactive
CCCCCCCCCCCCCCCCCC(=O)O | inactive
Cc1ccc(C)c(C)c1 | inactive

--- query ---
# outcome recorded in this test, key = "CCOC(=O)CCC(=O)OCC"
inactive

---

# Read-out: Monokine induced gamma interferon (MIG), CXCL9 (gene 4283)
# ASSAY_TEXT: BSK_3C_MIG: BioMAP Diversity Plus: 3C Assay for Monokine induced gamma interferon (MIG) Biomarker Activity (AID 2283021)
# CONDITIONS: primary human endothelial cells (HUVEC); actives raise or lower the signal
Calls of active or inactive are those of the source. Rule for the calls: active = hit-call score of the fitted dose curve at least 0.9, where 1 is the maximum; inactive = score below 0.9.
Answer with one of the outcomes given here: t (active), f (inactive)

COMPOUND | ASSIGNED_LABEL
CNC(=O)[C@H]1O[C@@H](n2cnc3c(NCc4cc(Cl)ccc4OCc4cc(C)no4)ncnc32)[C@H](O)[C@@H]1N | f
COc1ccc2c(c1)c(CC(=O)O)c(C)n2C(=O)c1ccc(Cl)cc1 | f
Clc1cc(Cl)c(Cl)cc1Cl | f
COc1ccc(C)cc1N | f
Cc1cccc(Nc2cc(Cl)nc(SCC(=O)O)n2)c1C | f
Cc1ccccc1Cl | f
CCCCc1ccc2c(n1)[C@@H](c1ccc(OC)cc1C[C@H](C)C(=O)O)[C@H](C(=O)O)[C@H]2c1ccc2c(c1)OCO2 | f
CN1CCCC1=O | f

GET /call?item= CC(=O)C(C)=CC1C(C)=CCCC1(C)C (centres undefined) returns the recorded outcome of this test.
f

Look up the recorded call for "CCOc1ccc2c(c1)C(C)=CC(C)(C)N2" in this test.
f

Field: outcome | Entry: "CC1=C(/C=C/C(C)=C/C=C/C(C)=C/CO)C(C)(C)CCC1"
f

---

# ASSAY_TEXT: ATG_E_Box_CIS: Attagene CIS-FACTORIAL HepG2 Assay for human Enhancer Box (E-box) (AID 2282936)
# CONDITIONS: HepG2 E-box cis-reporter transcription, actives raise or lower the signal
Activity calls are given as the source filed them. The calls were made as follows: active = hit-call score of the fitted dose curve at least 0.9, where 1 is the maximum; inactive = score below 0.9.
// classify into 1 for active, -1 for inactive

Below are worked cases with known answers.
SMILES | ASSIGNED_LABEL
CNC(=O)[C@H]1O[C@@H](n2cnc3c(NCc4cc(Cl)ccc4OCc4cc(C)no4)ncnc32)[C@H](O)[C@@H]1N | -1
Cc1nc(C)nc(N2C[C@@H](C)N(c3ccnc([C@@H](C)O)n3)[C@@H](C)C2)n1 | -1
COc1cc(-c2nc(NC(=O)c3cc4cc(C)cc(C)c4n3CC(=O)O)sc2CCC2CCCCC2)c(OC)cc1Cl | 1
O=C(O)Cc1ccccc1Nc1c(Cl)cccc1Cl | 1
CC(=O)OCCOCCOCCOC(C)=O | -1
CCCCCCCCCCC | -1

API: the following record is the query input.
Could you kindly confirm the outcome this assay logged for "O=c1c(O)c(-c2ccc(O)c(O)c2)oc2cc(O)cc(O)c12" ?
-1
